Entries and their measured EC50, HEK-Blue IL18R reporter cells follow.
- ASSAY SYSTEM: T1, IL-18 receptor (IL-18Rα/IL-18Rβ) on cells (HEK-Blue IL18R reporter cells, NK-92, KG-1) (human, UniProt Q13478 19-541; O95256 20-599)
- T1 sequence (looked up) 1: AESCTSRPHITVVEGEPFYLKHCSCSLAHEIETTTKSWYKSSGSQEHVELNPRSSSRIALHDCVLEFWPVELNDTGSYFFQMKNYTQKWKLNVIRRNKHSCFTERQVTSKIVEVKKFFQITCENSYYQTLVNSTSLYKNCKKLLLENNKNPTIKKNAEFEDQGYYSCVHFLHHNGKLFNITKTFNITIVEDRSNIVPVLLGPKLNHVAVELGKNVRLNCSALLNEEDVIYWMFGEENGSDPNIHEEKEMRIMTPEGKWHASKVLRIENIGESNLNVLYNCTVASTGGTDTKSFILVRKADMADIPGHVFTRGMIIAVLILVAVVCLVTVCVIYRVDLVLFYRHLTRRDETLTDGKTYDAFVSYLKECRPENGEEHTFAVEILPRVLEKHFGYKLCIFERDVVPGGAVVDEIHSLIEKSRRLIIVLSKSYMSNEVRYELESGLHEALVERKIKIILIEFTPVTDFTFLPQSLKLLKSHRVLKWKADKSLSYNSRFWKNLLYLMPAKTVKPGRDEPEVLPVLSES
- T1 sequence (looked up) 2: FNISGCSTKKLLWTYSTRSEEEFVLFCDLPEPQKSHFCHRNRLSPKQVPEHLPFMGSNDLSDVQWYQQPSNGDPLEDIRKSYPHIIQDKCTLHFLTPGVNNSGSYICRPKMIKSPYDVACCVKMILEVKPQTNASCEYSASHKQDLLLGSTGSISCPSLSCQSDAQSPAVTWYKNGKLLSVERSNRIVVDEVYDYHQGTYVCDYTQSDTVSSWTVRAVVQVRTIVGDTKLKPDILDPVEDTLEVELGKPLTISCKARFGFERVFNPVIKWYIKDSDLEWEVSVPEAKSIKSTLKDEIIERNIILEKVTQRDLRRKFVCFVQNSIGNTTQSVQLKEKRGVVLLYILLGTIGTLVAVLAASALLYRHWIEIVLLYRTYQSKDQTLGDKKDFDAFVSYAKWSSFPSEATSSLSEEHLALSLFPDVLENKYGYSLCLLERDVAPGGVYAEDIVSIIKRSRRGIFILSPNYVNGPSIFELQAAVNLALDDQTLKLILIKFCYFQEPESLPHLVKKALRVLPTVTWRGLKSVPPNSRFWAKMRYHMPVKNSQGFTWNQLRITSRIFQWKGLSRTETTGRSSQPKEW
- PROTOCOL SUMMARY: cell-based or functional assay
Write it as a number; the unit pM goes unstated.

BINDER	VALUE TYPE	OUTPUT UNIT	NUMBER
IL-18 polypeptide C163 (ligand, also called V11I, C38A, C76A, Q103K, C127A) YFGKLESKLSIIRNLNDQVLFIDQGNRPLFEDMTDSDARDNAPRTIFIISMYKDSQPRGMAVTISVKCEKISTLSAENKIISFKEMNPPDNIKDTKSDIIFFKRSVPGHDNKMQFESSSYEGYFLAAEKERDLFKLILKKEDELGDRSIMFTVQNED	EC50, HEK-Blue IL18R reporter cells	pM	1.5
IL-18 polypeptide C168 (ligand, also called V11I, C38A, C76A, S105K, C127A) YFGKLESKLSIIRNLNDQVLFIDQGNRPLFEDMTDSDARDNAPRTIFIISMYKDSQPRGMAVTISVKCEKISTLSAENKIISFKEMNPPDNIKDTKSDIIFFQRKVPGHDNKMQFESSSYEGYFLAAEKERDLFKLILKKEDELGDRSIMFTVQNED	EC50, HEK-Blue IL18R reporter cells	pM	7.73

IL-18 polypeptide C160 (ligand, also called V11I, C38A, K53A, C76A, D110A, C127A) YFGKLESKLSIIRNLNDQVLFIDQGNRPLFEDMTDSDARDNAPRTIFIISMYADSQPRGMAVTISVKCEKISTLSAENKIISFKEMNPPDNIKDTKSDIIFFQRSVPGHANKMQFESSSYEGYFLAAEKERDLFKLILKKEDELGDRSIMFTVQNED yielded EC50, HEK-Blue IL18R reporter cells of 2.02

Form: binder = IL-18 polypeptide of SEQ ID NO: 50 (E06K, K53A, T63A) (ligand) YFGKLKSKLSVIRNLNDQVLFIDQGNRPLFEDMTDSDCRDNAPRTIFIISMYADSQPRGMAVAISVKCEKISTLSCENKIISFKEMNPPDNIKDTKSDIIFFQRSVPGHDNKMQFESSSYEGYFLACEKERDLFKLILKKEDELGDRSIMFTVQNED ; EC50, HEK-Blue IL18R reporter cells = 1.77

Value of EC50, HEK-Blue IL18R reporter cells reported for the binder IL-18 polypeptide C147 (ligand, also called V11I, C38A, K53A, D54A, C76A, C127A) YFGKLESKLSIIRNLNDQVLFIDQGNRPLFEDMTDSDARDNAPRTIFIISMYAASQPRGMAVTISVKCEKISTLSAENKIISFKEMNPPDNIKDTKSDIIFFQRSVPGHDNKMQFESSSYEGYFLAAEKERDLFKLILKKEDELGDRSIMFTVQNED is 1

EC50, HEK-Blue IL18R reporter cells reported for this binder IL-18 polypeptide C184 (ligand, also called E6R, V11I, C38A, K53A, T63A, C76A, C127A) YFGKLRSKLSIIRNLNDQVLFIDQGNRPLFEDMTDSDARDNAPRTIFIISMYADSQPRGMAVAISVKCEKISTLSAENKIISFKEMNPPDNIKDTKSDIIFFQRSVPGHDNKMQFESSSYEGYFLAAEKERDLFKLILKKEDELGDRSIMFTVQNED : 0.04

Form field EC50, HEK-Blue IL18R reporter cells, entry IL-18 polypeptide C183 (SEQ ID NO: 69) (ligand) YFGKLKSKLSIIRNLNDQVLFIDQGNRPLFEDMTDSDARDNAPRTIFIISGYADSQPRGMAVAISVKCEKISTLSAENKIISFKEMNPPDNIKDTKSDIIFFQRSVPGHDNKMQFESSSYEGYFLAAEKERDLFKLILKKEDELGDRSIMFTVQNED : 0.1
